Measured values drawn from ChEMBL document CHEMBL1143502 for this set.

Known Kd of a selection of compounds
# protocolSummary: The in vitro binding constant in presence of K+ was reported
# Type: functional
# value in mM; strip the unit string

In the examples that follow, each entry is paired with its recorded Kd.
[
  {
    "recordSmiles": "COC(=O)CN1CCOCCOCCOc2cc(-c3c4cc(F)c(=O)cc-4oc4cc(O)c(F)cc34)ccc21",
    "Kd, mM": 978
  },
  {
    "recordSmiles": "COC(=O)CN1CCOCCOCCOCCOc2cc(-c3c4ccc(=[N+](C)C)cc-4oc4cc(N(C)C)ccc34)ccc21",
    "Kd, mM": 254
  }
]

Now consider a different compound.
Identify measured Kd associated with `COC(=O)CN1CCOCCOCCOCCOc2cc(NC(=O)c3ccc(-c4c5cc(F)c(=O)cc-5oc5cc(O)c(F)cc45)c(C(=O)O)c3)ccc21`
144
